# experiment description: Primary qHTS to identify inhibitors of SARS-CoV-2 cell entry (AID 1645846); also: nearly all actives have a fitted effect of over 45% in size; also: potency is read from the fitted curve at half-maximal effect
# measurement setup: SARS-CoV-2 pseudovirus cell entry assay, luminescence; series mostly up to 57.1 µM
Results filed as inconclusive are left out. Calls of active or inactive are those of the source. Calls follow the shape of the full dose curve.

| compound | Potency |
| --- | --- |
| O=c1[nH]cnc2c1ncn2[C@@H]1O[C@H](CO)[C@@H](O)[C@H]1O | inactive |
| CCOc1c(N2CCOCC2)cnn(C)c1=O | inactive |
| CCN(CCCCOC(=O)c1ccc(OC)c(OC)c1)C(C)Cc1ccc(OC)cc1 (stereo unspecified) | 14.1 µM (active) |
| C[C@]12CC[C@@H]3c4ccc(O)cc4CC[C@H]3[C@@H]1CCC2=O | inactive |
| NS(=O)(=O)c1cc2c(cc1Cl)NCNS2(=O)=O | inactive |
| CC(=O)OCC(=O)[C@@]1(O)CC[C@H]2[C@@H]3CCC4=CC(=O)C=C[C@]4(C)[C@H]3[C@@H](O)C[C@@]21C | inactive |
| CCN(CC)C(=O)c1cccc(C)c1 | inactive |
| CCOC(=O)c1c(N)sc2c1CCN(Cc1ccccc1)C2 | inactive |
| O=C1c2cccc(O)c2C(=O)c2c(O)cccc21 | inactive |
| CCOC(=O)c1cncn1C(C)c1ccccc1 (stereo unspecified) | inactive |
| Nc1ccn(C2CO[C@H](CO)O2)c(=O)n1 (stereo partly specified) | inactive |
| Nc1ccn([C@H]2CC[C@@H](CO)O2)c(=O)n1 | inactive |
| CCC(=O)O[C@]1(C(=O)SCF)[C@H](C)C[C@H]2[C@@H]3C[C@H](F)C4=CC(=O)C=C[C@]4(C)[C@@]3(F)[C@@H](O)C[C@@]21C | inactive |
| O=c1ccc2ccccc2o1 | inactive |
| COc1cc(NS(=O)(=O)c2ccc(N)cc2)ncn1 | inactive |
| CCC(=O)c1ccc(O)cc1 | inactive |
| N[C@@H](CSCCCO)C(=O)O | inactive |
| CN1[C@@H]2CC[C@H]1CC(NC(=O)n1c(=O)[nH]c3ccccc31)C2 (stereo partly specified) | inactive |
| COc1ccc(CCN2CCC(Nc3nc4ccccc4n3Cc3ccc(F)cc3)CC2)cc1 | 10 µM (active) |
| Cc1cc(C(C)(C)C)c(O)c(C)c1CC1=NCCN1 | inactive |
| CC(C)(C)C(=O)C(Oc1ccc(Cl)cc1)n1ccnc1 (stereo unspecified) | 20 µM (active) |
| CCOC(=O)C1=C(C)NC(C)=C(C(=O)OCC)C1c1ccccc1/C=C/C(=O)OC(C)(C)C | 25.1 µM (active) |
| CCOC(=O)OC(C)OC1=C(C(=O)Nc2ccccn2)N(C)S(=O)(=O)c2ccccc21 (stereo unspecified) | inactive |
| CCOC(=O)n1ccn(C)c1=S | inactive |
| CCN(CC)CC(=O)Nc1c(C)cccc1C | inactive |
| CCN[C@H]1C[C@H](C)S(=O)(=O)c2sc(S(N)(=O)=O)cc21 | inactive |
| NC(=O)CN1CCCC1=O | inactive |
| CC[C@H]1CN2CCc3cc(OC)c(OC)cc3[C@@H]2C[C@@H]1C[C@H]1NCCc2cc(OC)c(OC)cc21 | 1.26 µM (active) |
| COc1ccc2c(c1)C(=O)N(CCc1ccc(S(=O)(=O)NC(=O)NC3CCCCC3)cc1)C(=O)C2(C)C | inactive |
| O=C(O)CCNC(=O)c1ccccc1 | inactive |
| NCCc1cnc[nH]1 | inactive |
| CCOCCOC(=O)/C=C/c1ccc(OC)cc1 | inactive |
| Cc1cc(O)c(C(C)C)cc1Cl | inactive |
| O=C1OC2(c3ccc(O)cc3Oc3cc(O)ccc32)c2ccccc21 | inactive |
| CC(=C(CCOC(=O)C(C)C)SSC(CCOC(=O)C(C)C)=C(C)N(C=O)Cc1cnc(C)nc1N)N(C=O)Cc1cnc(C)nc1N | inactive |
| C#CCN(C)Cc1ccccc1 | inactive |
| CC(=O)OCC1=C(C(=O)O)N2C(=O)[C@@H](NC(=O)CSc3ccncc3)[C@H]2SC1 | inactive |
| CCn1c(=O)c2c(nc(C=Cc3ccc(OC)c(OC)c3)n2C)n(CC)c1=O | inactive |
| CN1CCN(c2cc3c(cc2F)c(=O)c(C(=O)O)cn3-c2ccc(F)cc2)CC1 | inactive |
| CC/C(=C(/CC)c1ccc(O)cc1)c1ccc(O)cc1 | 17.8 µM (active) |
| CN(C)CCCN1c2ccccc2Sc2ccccc21 | 14.1 µM (active) |
| CCOc1ccc(NC(C)=O)cc1 | inactive |
| NC(=O)c1ncn([C@@H]2O[C@H](CO)[C@@H](O)[C@H]2O)c1N | inactive |
| COC(=O)[C@H]1[C@H]2C[C@@H]3c4[nH]c5cc(OC)ccc5c4CCN3C[C@H]2C[C@@H](OC(=O)/C=C/c2ccc(O)c(OC)c2)[C@@H]1OC | 12.6 µM (active) |
| C[C@@H]1C[C@H]2[C@@H]3CCC4=CC(=O)C=C[C@]4(C)[C@@]3(F)[C@@H](O)C[C@]2(C)[C@H]1C(=O)CO | inactive |
| CC(=O)OCC(=O)NCCCOc1cccc(CN2CCCCC2)c1 | inactive |

###

# Tested on: HaCat
# experiment description: Cytotoxic Profiling of Annotated Libraries Using Quantitative High-Throughput Screening (AID 1296008); also: nearly all actives have a fitted effect of over 60% in size
# measurement setup: Five cell lines viability, CellTiter-Glo ATP luminescence, 48-72 h
Results filed as inconclusive are left out. The source made the active and inactive calls. Calls come from the whole dose curve; as a rule, active = well fitted inhibition curve with a large enough effect; inconclusive = small, poorly fitted or top-dose-only effect; inactive = flat fitted curve, though single readings scatter.
Labels: active, inactive

| compound | qualitative label |
| --- | --- |
| O=C(NC(=O)c1c(F)cccc1F)Nc1cc(Cl)c(OC(F)(F)C(F)C(F)(F)F)cc1Cl (stereo unspecified) | inactive |
| C[C@H]1C(=O)O[C@@H]2CCN3CC=C(COC(=O)[C@](C)(O)[C@]1(C)O)[C@H]23 | inactive |
| CCOC(=O)C(c1c(O)c2ccccc2oc1=O)c1c(O)c2ccccc2oc1=O | inactive |
| CCOC(=O)NC(O)C(Cl)(Cl)Cl (stereo unspecified) | inactive |
| Cc1ccc([N+](=O)[O-])[c]2c1[O][Hg]2 | active |
| CN1C[C@@H](NS(=O)(=O)N(C)C)C[C@@H]2c3cccc4c3c(cn4C)C[C@H]21 | inactive |
| CN1CCc2cc(Cl)c(O)cc2[C@H]2c3ccccc3CC[C@@H]21 | inactive |
| COc1ccc(OC)c(CC(C)N)c1 (stereo unspecified) | inactive |
| C1CN2CCC1CC2 | inactive |
| CC1=C2[C@H]3OC(=O)[C@@H](C)[C@@H]3CC[C@@]2(C)C=CC1=O | inactive |
| COP(=O)(OC)C(O)C(Cl)(Cl)Cl (stereo unspecified) | inactive |

###

# measurement setup: Ebola virus entry assay, blue channel fluorescence
Activity calls are given as the source filed them.

| compound | AC50 |
| --- | --- |
| COc1cc2[nH]c(=O)[nH]c(=O)c2cc1OC | inactive |
| C[C@@H]1CN(C2CCC(C#N)(c3ccc(F)cc3)CC2)CC[C@]1(C(=O)O)c1ccccc1 (stereo not given in full) | inactive |
| ClC1=C(Cl)C2(Cl)C(CBr)CC1(Cl)C2(Cl)Cl (stereo not given) | inactive |
| Nc1c2c(nc3c1CCC3)CCCC2 | 28.2 µM (active) |
| CC[N+](CC)(CC)CCOc1ccc(/C=C/c2ccccc2)cc1 | inactive |
| CC1(C)OC(=O)Nc2ccc(Br)cc21 | inactive |
| CC1Sc2c(C(=O)O)c(=O)c3cc(F)c(N4CCNCC4)cc3n21 (stereo not given) | inactive |
| O=C(O)CCC(=O)c1ccc(-c2ccccc2)cc1 | inactive |
| CCN[C@H]1C[C@H](C)S(=O)(=O)c2sc(S(N)(=O)=O)cc21 | inactive |
| CC1=C(CC(=O)O)c2cc(F)ccc2/C1=C\c1ccc(S(C)(=O)=O)cc1 | inactive |
| O=c1[nH]sc2cc(Cl)ccc12 | 39.8 µM (active) |
| C1CCC(C(CC2CCCCN2)C2CCCCC2)CC1 (stereo not given) | 1.78 µM (active) |
| C[N+](C)(C)CCOC(=O)CCC(=O)OCC[N+](C)(C)C | inactive |
| O=C1Nc2cc(Cl)ccc2Oc2ccccc21 | inactive |
| CC1(C)[C@H](C(=O)O)N2C(=O)C[C@H]2S1(=O)=O | 15.8 µM (active) |
| CCCCN1CCCC[C@H]1C(=O)Nc1c(C)cccc1C | inactive |
| Cn1cc(C(=O)[C@@H]2CCc3nc[nH]c3C2)c2ccccc21 | inactive |
| CNC(C)Cc1ccccc1OC (stereo not given) | inactive |
| CCCCCOc1ccccc1/C(=C\SC)n1ccnc1 | inactive |
| O=C1NCCN1CCN1CCC(c2cn(-c3ccc(F)cc3)c3ccc(Cl)cc23)CC1 | 0.891 µM (active) |
| CN(C)CCc1c[nH]c2ccc(O)cc12 | inactive |
| COc1ccc(/C=C/C(=O)c2ccc(OC)cc2OC)cc1 | 39.8 µM (active) |
| O=C(O)C(Cc1cc(I)c(O)c(I)c1)c1ccccc1 (stereo not given) | inactive |
| CCCCCCCCOc1ccccc1C(=O)Nc1ccc(C(=O)OCC[N+](C)(CC)CC)cc1 | 10 µM (active) |
| C[N+]12CCC(CC1)C(OC(=O)C(O)(c1ccccc1)c1ccccc1)C2 (stereo not given) | inactive |

Entry source: PubChem BioAssay (NCATS)
